Measured values drawn from patent US20240317780A1 for this set.

As an illustration, consider measured pIC50 for molecules on SST2 (Homo sapiens).
Sequence (P30874 whole entry, species assumed): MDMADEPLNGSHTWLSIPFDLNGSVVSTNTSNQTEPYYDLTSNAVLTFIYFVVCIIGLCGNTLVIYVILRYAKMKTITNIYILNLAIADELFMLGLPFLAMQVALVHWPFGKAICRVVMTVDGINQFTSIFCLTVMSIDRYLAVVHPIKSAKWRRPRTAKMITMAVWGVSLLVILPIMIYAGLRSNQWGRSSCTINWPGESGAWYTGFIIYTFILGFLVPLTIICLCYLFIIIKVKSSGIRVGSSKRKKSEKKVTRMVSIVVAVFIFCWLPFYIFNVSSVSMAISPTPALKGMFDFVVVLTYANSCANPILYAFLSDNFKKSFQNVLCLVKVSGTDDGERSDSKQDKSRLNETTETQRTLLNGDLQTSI
Just so you know, pIC50 here is -log10 of the concentration in molar units; reply with that number alone.

[[record]]
molecule = "C[C@@H](O)[C@H](NC(=O)C1CSSCC(NC(=O)C(Cc2ccccc2)NC(=O)CNC(=O)CNC(=O)CNC(=O)C(CC(=O)O)NC(=O)[C@@H](CC(=O)O)NC(=O)C(CCCNC(N)=O)NC(=O)[C@@H](CNC(=O)CN2CCN(CC(=O)O)CCN(CC(=O)O)CCN(CC(=O)O)CC2)NC(=O)C[N+](C)(C)Cc2ccc([Si](F)(C(C)(C)C)C(C)(C)C)cc2)C(=O)N[C@@H](Cc2ccc(O)cc2)C(=O)NC(Cc2c[nH]c3ccccc23)C(=O)N[C@@H](CCCCN)C(=O)N[C@@H]([C@@H](C)O)C(=O)N1)C(=O)O (some centres unmarked) (natGa complex, metal not drawn) [[Ga]58]"
target_of_assay = "SST2 (Homo sapiens)"
test_value = 8.36


Now look at this one.
Task item: Using the record for C[C@@H](O)[C@H](NC(=O)C1CSSCC(NC(=O)C(Cc2ccccc2)NC(=O)CNC(=O)CNC(=O)CNC(=O)C(CC(=O)O)NC(=O)[C@@H](CC(=O)O)NC(=O)C(CNC(=O)C[N+](C)(C)Cc2ccc([Si](F)(C(C)(C)C)C(C)(C)C)cc2)NC(=O)CN2CCN(CC(=O)O)CCN(CC(=O)O)CCN(CC(=O)O)CC2)C(=O)N[C@@H](Cc2ccc(O)cc2)C(=O)NC(Cc2c[nH]c3ccccc23)C(=O)N[C@@H](CCCCN)C(=O)N[C@@H]([C@@H](C)O)C(=O)N1)C(=O)O (some centres unmarked) (natLu complex, metal not drawn) [[Lu]44] , report its pIC50.
Reply: 8.41

---

experiment: Biodistribution of 18F-labeled SST2 ligands in AR42J tumor-bearing mice; type: in vivo; conditions: female, CD1 nu/nu, mouse, liver, iv, total radioactivity, 1 h post injection, tail vein; read-out: Liver % ID/g ± SD
Parameter measured: tissue uptake at 1 h

[[record]]
compound = "C[C@@H](O)[C@H](NC(=O)C1CSSCC(NC(=O)C(Cc2ccccc2)NC(=O)CNC(=O)CNC(=O)CNC(=O)C(CC(=O)O)NC(=O)[C@@H](CC(=O)O)NC(=O)C(CCCCN)NC(=O)[C@@H](CNC(=O)C[N+](C)(C)Cc2ccc([Si](F)(C(C)(C)C)C(C)(C)C)cc2)NC(=O)CN2CCN(CC(=O)O)CCN(CC(=O)O)CCN(CC(=O)O)CC2)C(=O)N[C@@H](Cc2ccc(O)cc2)C(=O)NC(Cc2c[nH]c3ccccc23)C(=O)N[C@@H](CCCCN)C(=O)N[C@@H]([C@@H](C)O)C(=O)N1)C(=O)O (stereo partly drawn) (natGa complex, metal not drawn) [[Ga]45]"
test_value = "1.28 %ID/g"

[[record]]
compound = "C[C@@H](O)[C@H](NC(=O)C1CSSCC(NC(=O)C(Cc2ccccc2)NC(=O)CNC(=O)CNC(=O)CNC(=O)C(CC(=O)O)NC(=O)[C@@H](CC(=O)O)NC(=O)C(CCCNC(N)=O)NC(=O)[C@@H](CNC(=O)C[N+](C)(C)Cc2ccc([Si](F)(C(C)(C)C)C(C)(C)C)cc2)NC(=O)CN2CCN(CC(=O)O)CCN(CC(=O)O)CCN(CC(=O)O)CC2)C(=O)N[C@@H](Cc2ccc(O)cc2)C(=O)NC(Cc2c[nH]c3ccccc23)C(=O)N[C@@H](CCCCN)C(=O)N[C@@H]([C@@H](C)O)C(=O)N1)C(=O)O (stereo partly drawn) (natGa complex, metal not drawn) [[Ga]46]"
test_value = "0.83 %ID/g"


Now for another entry.
Task item: Recorded tissue uptake at 1 h of C[C@@H](O)[C@H](NC(=O)C1CSSCC(NC(=O)C(Cc2ccccc2)NC(=O)CNC(=O)CNC(=O)[C@@H](CC(=O)O)NC(=O)C(CC(=O)O)NC(=O)[C@@H](CNC(=O)CN2CCN(CC(=O)O)CCN(CC(=O)O)CCN(CC(=O)O)CC2)NC(=O)C(CN)NC(=O)c2ccc([Si](F)(C(C)(C)C)C(C)(C)C)cc2)C(=O)N[C@@H](Cc2ccc(O)cc2)C(=O)NC(Cc2c[nH]c3ccccc23)C(=O)N[C@@H](CCCCN)C(=O)N[C@@H]([C@@H](C)O)C(=O)N1)C(=O)O (stereo partly drawn) (natGa complex, metal not drawn) [[Ga]19] , please.
Reply: 2.47 %ID/g

---

// LogDpH=7.4 lookup, one value per entry
experiment: Octanol-water distribution coefficient (logD pH 7.4) of the labeled tracer; assay type: physicochemical; conditions: n-octanol/PBS pH 7.4, room temperature
Simply state the number, no unit and no words.

Here are 3 compounds together with their reported answers.
[[record]]
compound = "C[C@@H](O)[C@H](NC(=O)C1CSSCC(NC(=O)C(Cc2ccccc2)NC(=O)CNC(=O)CNC(=O)CNC(=O)C(CC(=O)O)NC(=O)[C@@H](CC(=O)O)NC(=O)C(CCCNC(N)=O)NC(=O)[C@@H](CNC(=O)CN2CCN(CC(=O)O)CCN(CC(=O)O)CCN(CC(=O)O)CC2)NC(=O)C[N+](C)(C)Cc2ccc([Si](F)(C(C)(C)C)C(C)(C)C)cc2)C(=O)N[C@@H](Cc2ccc(O)cc2)C(=O)NC(Cc2c[nH]c3ccccc23)C(=O)N[C@@H](CCCCN)C(=O)N[C@@H]([C@@H](C)O)C(=O)N1)C(=O)O (stereo partly shown) (natGa complex, metal not drawn) [[Ga]58]"
parameter_measured = "LogDpH=7.4"
test_value = "−2.31"

[[record]]
compound = "C[C@@H](O)[C@H](NC(=O)C1CSSCC(NC(=O)C(Cc2ccccc2)NC(=O)CNC(=O)CNC(=O)CNC(=O)C(CC(=O)O)NC(=O)[C@@H](CC(=O)O)NC(=O)C(CNC(=O)CN2CCN(CC(=O)O)CCN(CC(=O)O)CCN(CC(=O)O)CC2)NC(=O)[C@@H](CN)NC(=O)CNC(=O)C[N+](C)(C)Cc2ccc([Si](F)(C(C)(C)C)C(C)(C)C)cc2)C(=O)N[C@@H](Cc2ccc(O)cc2)C(=O)NC(Cc2c[nH]c3ccccc23)C(=O)N[C@@H](CCCCN)C(=O)N[C@@H]([C@@H](C)O)C(=O)N1)C(=O)O (stereo partly shown) [[Lu]52]"
parameter_measured = "LogDpH=7.4"
test_value = "−1.88"

[[record]]
compound = "CC(O)C(NC(=O)C1CSSCC(NC(=O)C(Cc2ccccc2)NC(=O)CNC(=O)CNC(=O)CNC(=O)C(CC(N)=O)NC(=O)[C@@H](CC(N)=O)NC(=O)C(CNC(=O)CN2CCN(CC(=O)O)CCN(CC(=O)O)CCN(CC(=O)O)CC2)NC(=O)C[N+](C)(C)Cc2ccc([Si](F)(C(C)(C)C)C(C)(C)C)cc2)C(=O)N[C@@H](Cc2ccc(O)cc2)C(=O)NC(Cc2c[nH]c3ccccc23)C(=O)N[C@@H](CCCCN)C(=O)N[C@@H]([C@@H](C)O)C(=O)N1)C(=O)O (stereo partly shown) (natGa complex, metal not drawn) [[Ga]56]"
parameter_measured = "LogDpH=7.4"
test_value = "−1.51"


Moving on to the next compound.
Task item: If you can, please state the reported LogDpH=7.4 value of C[C@@H](O)[C@H](NC(=O)C1CSSCC(NC(=O)C(Cc2ccccc2)NC(=O)CNC(=O)CNC(=O)CNC(=O)C(CC(=O)O)NC(=O)[C@@H](CC(=O)O)NC(=O)C(CCCCN)NC(=O)[C@@H](CNC(=O)CN2CCN(CC(=O)O)CCN(CC(=O)O)CCN(CC(=O)O)CC2)NC(=O)C[N+](C)(C)Cc2ccc([Si](F)(C(C)(C)C)C(C)(C)C)cc2)C(=O)N[C@@H](Cc2ccc(O)cc2)C(=O)NC(Cc2c[nH]c3ccccc23)C(=O)N[C@@H](CCCCN)C(=O)N[C@@H]([C@@H](C)O)C(=O)N1)C(=O)O (stereo partly shown) (natGa complex, metal not drawn) [[Ga]57] .
Reply: −2.25

---

Assay: Octanol-water distribution coefficient (logD pH 7.4) of the labeled tracer
Format: physicochemical
Conditions: n-octanol/PBS pH 7.4, room temperature
Procedure: Approximately 1 MBq of the labeled tracer was dissolved in 1 mL of a 1:1 mixture (by volumes) of phosphate buffered saline (PBS, pH 7.4) and n-octanol in an Eppendorf tube. After vigorous mixing of the suspension for 3 minutes at room temperature, the vial was centrifuged at 15000 g for 5 minutes (Biofuge 15, Heraus Sepatech, Osterode, Germany) and 100 μL aliquots of both layers were measured in a gamma counter. The experiment was repeated at least six times.
Property: LogDpH=7.4; scope: individual molecules
Answer with a bare number; do not write a unit.

[[record]]
molecule = "C[C@@H](O)[C@H](NC(=O)C1CSSCC(NC(=O)C(Cc2ccccc2)NC(=O)COCCOCCNC(=O)C(CC(=O)O)NC(=O)[C@@H](CC(=O)O)NC(=O)C(CNC(=O)CCC(C(=O)O)N2CCN(CC(=O)O)CCN(CC(=O)O)CCN(CC(=O)O)CC2)NC(=O)c2ccc([Si](F)(C(C)(C)C)C(C)(C)C)cc2)C(=O)N[C@@H](Cc2ccc(O)cc2)C(=O)NC(Cc2c[nH]c3ccccc23)C(=O)N[C@@H](CCCCN)C(=O)N[C@@H]([C@@H](C)O)C(=O)N1)C(=O)O (some centres unmarked) (natGa complex, metal not drawn) [[Ga]2]"
parameter_measured = "LogDpH=7.4"
test_value = "−2.3"


Attention now shifts to the item below.
Task item: What LogDpH=7.4 value was documented for this molecule, C[C@@H](O)[C@H](NC(=O)C1CSSCC(NC(=O)C(Cc2ccccc2)NC(=O)CNC(=O)CNC(=O)[C@@H](CC(=O)O)NC(=O)C(CC(=O)O)NC(=O)[C@@H](CNC(=O)CC[C@H](C(=O)O)N2CCN(CC(=O)O)CCN(CC(=O)O)CCN(CC(=O)O)CC2)NC(=O)C(CN)NC(=O)c2ccc([Si](F)(C(C)(C)C)C(C)(C)C)cc2)C(=O)N[C@@H](Cc2ccc(O)cc2)C(=O)NC(Cc2c[nH]c3ccccc23)C(=O)N[C@@H](CCCCN)C(=O)N[C@@H]([C@@H](C)O)C(=O)N1)C(=O)O (some centres unmarked) [[Ga]20] ?
Reply: −2.16
